Provenance of the data: the supplement of paper PMC8253809

Give growth inhibition for every item shown.
Test system: HGGX6 (H3.3 G34R paediatric high-grade glioma line)
Assay: growth inhibition (% activity, log2 RLU normalised to DMSO / staurosporine); higher = more growth inhibition
Conditions: 33 µM
Answers are plain numbers, in %.

Inquiry: Using the record for `C=C1c2cccc(O)c2C(O)=C2C(=O)[C@]3(O)C(O)=C(C(N)=O)C(=O)[C@@H](N(C)C)[C@@H]3[C@@H](O)[C@H]12` , report its growth inhibition.
Reply text: -0.509

Inquiry: Now this one: `C[C@](N)(Cc1ccc(O)c(O)c1)C(=O)O`
Reply text: -1.03

Inquiry: Now this one: `Oc1cc(O)c(Cl)cn1`
Reply text: 0.219

Inquiry: Now this one: `O=C(O)c1cn(C2CC2)c2cc(N3CCNCC3)c(F)cc2c1=O`
Reply text: -1.82

Inquiry: Now this one: COc1cc2nc(N(C)CCCNC(=O)C3CCCO3)nc(N)c2cc1OC (stereo not given)
Reply text: 1.08

Each molecule below has a reported value. Please supply its growth inhibition.
1. CN(C)CCOC(c1ccccc1)c1ccccc1
2. CC1(C(=O)O)CCC2(C)CCC3(C)C(=CC(=O)C4C5(C)CCC(OC6OC(C(=O)O)C(O)C(O)C6OC6OC(C(=O)O)C(O)C(O)C6O)C(C)(C)C5CCC43C)C2C1 (stereo not given)
3. CC[C@@H](CO)NCCN[C@@H](CC)CO
4. CC(=O)OCC(CCn1cnc2cnc(N)nc21)COC(C)=O
5. Nc1ccn(C2CSC(CO)O2)c(=O)n1 (stereo not given)

Reply text:
1: -2.72; 2: -0.137; 3: -2.97; 4: -3.73; 5: -0.895

----------
System: HNSC
Test: growth inhibition (% activity, log2 RLU normalised to DMSO / staurosporine); higher = more growth inhibition
Conditions: 33 µM
measured.property: growth inhibition (%)
Give bare numbers, in %.

Inquiry: Using the record for `Cc1onc(-c2ccccc2)c1-c1ccc(S(N)(=O)=O)cc1` , report its growth inhibition.
Reply text: -0.462

Inquiry: Now this one: `COc1ncnc(NS(=O)(=O)c2ccc(N)cc2)c1OC`
Reply text: -1.3

Inquiry: Now this one: `O=C(O)c1ccc(NC(=O)[C@H](Cc2ccc(O)cc2)NC(=O)c2ccccc2)cc1`
Reply text: -2.41

Each molecule below has a reported value. Please supply its growth inhibition.
1. Cc1ncc(C[n+]2csc(CCO)c2C)c(N)n1
2. Cc1cc2c(s1)Nc1ccccc1N=C2N1CCN(C)CC1

Reply text:
-1.01
3.31

Each molecule below has a reported value. Please supply its growth inhibition.
1. NC[C@@H]1O[C@H](O[C@H]2[C@@H](O)[C@H](O[C@@H]3[C@@H](O)[C@H](N)C[C@H](N)[C@H]3O[C@H]3O[C@H](CO)[C@@H](O)[C@H](O)[C@H]3N)O[C@@H]2CO)[C@H](N)[C@@H](O)[C@@H]1O
2. O=C1[C@H](CC[C@H](O)c2ccc(F)cc2)[C@@H](c2ccc(O)cc2)N1c1ccc(F)cc1
3. CNC[C@H](O)[C@@H](O)[C@H](O)[C@H](O)CO

Reply text:
[-2.1, -0.443, 3.01]

Each molecule below has a reported value. Please supply its growth inhibition.
1. O=C(O)c1cc(-c2ccccc2)nc2ccccc12
2. CCCc1cc(=O)[nH]c(=S)[nH]1
3. CC1(C)O[C@@H]2C[C@H]3[C@@H]4CCC5=CC(=O)C=C[C@]5(C)[C@@]4(F)[C@@H](O)C[C@]3(C)[C@]2(C(=O)CO)O1

Reply text:
[-0.619, -0.282, -2.22]
